# Tested on: female white mice
# assay.name: animal or person
# conditions.used: Mus musculus, po, read-out: Reflexes Lift ED50, Table III; oral, mice
Where a name gives a salt, the structure may show the parent alone.
Reported ED50 values are given for each entry in this list.
A number alone suffices; assume mg/kg.

Example entries and their recorded answers appear below.
# value of ED50, female white mice, item Clc1ccc2c(c1)[C@H]1CN(CC3CCCC3)C[C@@]13C[C@@H]2c1ccc(Cl)cc13 (relative stereo) [Example 79, Hydrochloride] = 36

# value of ED50, female white mice, item Cc1ccc2c(c1)[C@]13C[C@H]2c2ccccc2[C@H]1CN(CC1CCCC1)C3 (relative stereo) [Example 89] = 25

# value of ED50, female white mice, item OCc1ccc2c(c1)[C@]13C[C@H]2c2ccccc2[C@H]1CN(CC1CCCC1)C3 (relative stereo) [Example 86, Hydrochloride] = 36

# value of ED50, female white mice, item Fc1ccc2c(c1)[C@]13C[C@H]2c2ccccc2[C@H]1CN(CC1CCCC1)C3 (relative stereo) [Example 77, Hydrochloride] = 20

# value of ED50, female white mice, item COC(=O)c1ccc2c(c1)[C@]13C[C@H]2c2ccccc2[C@H]1CN(CC1CCCC1)C3 (relative stereo) [Example 74] = 36

Now for another entry.
# value of ED50, female white mice, item [N-]=[N+]=Nc1ccc2c(c1)[C@]13C[C@H]2c2ccccc2[C@H]1CN(CC1CCCC1)C3 (relative stereo) [Example 82] = 60

* * *

Reported ED50 values are given for each entry in this list.
# System: female white mice
# assay.name: animal or person
# conditions.used: Mus musculus, po, read-out: Muscle Tone ED50, Table 1; oral, mice
# Method: Groups of five Carworth CF1 S female mice, 16-20 g each, were fasted 16-22 hours before use. […] ED50 values were calculated for each parameter including death (LD50). […] The observer gently strokes the abdominal musculature of the mouse with thumb and forefinger. Flaccidity (or rarely, tenseness) is recorded. […]
A number alone suffices; assume mg/kg.

Example entries and their recorded answers appear below.
# value of ED50, female white mice, item c1ccc2c(c1)C1CC3(CN(CC4CCCCCC4)CC23)c2ccccc21 (stereo not shown) = 36

# value of ED50, female white mice, item CN1CC2c3ccccc3C3CC2(C1)c1ccccc13 (stereo not shown) = 100

# value of ED50, female white mice, item CC1CCC(CN2C[C@@H]3c4ccccc4[C@@H]4C[C@@]3(C2)c2ccccc24)C1 (stereo partly shown) = 12

---
# value of ED50, female white mice, item CCCN1C[C@@H]2c3ccccc3[C@@H]3C[C@@]2(C1)c1ccccc13 (relative stereo) = 7

# value of ED50, female white mice, item c1ccc([C@@H]2C[C@H]2CN2CC3c4ccccc4C4CC3(C2)c2ccccc24)cc1 (relative stereo) = 100

# value of ED50, female white mice, item c1ccc(CN2CC3c4ccccc4C4CC3(C2)c2ccccc24)cc1 (stereo not shown) = 20

# value of ED50, female white mice, item c1ccc(CCCCN2C[C@@H]3c4ccccc4[C@@H]4C[C@@]3(C2)c2ccccc24)cc1 (relative stereo) = 20

# value of ED50, female white mice, item CC(C)N1C[C@@H]2c3ccccc3[C@@H]3C[C@@]2(C1)c1ccccc13 (relative stereo) = 7

# value of ED50, female white mice, item c1ccc2c(c1)C1CC3(CN(CCC4CCCCC4)CC23)c2ccccc21 (stereo not shown) = 24

# value of ED50, female white mice, item c1ccc2c(c1)[C@@H]1C[C@@]3(CN(C4CCCC4)C[C@H]23)c2ccccc21 (relative stereo) = 100

# value of ED50, female white mice, item CCC(CC)CN1CC2c3ccccc3C3CC2(C1)c1ccccc13 (stereo not shown) = 100

meta.source: patent US4088772A
